target: c-Met H1094R (Homo sapiens, UniProt P08581, H1094R); assay: Tyrosine kinase HTRF assay, c-Met H1094R
Sequence (P08581 25-1390 H1094R): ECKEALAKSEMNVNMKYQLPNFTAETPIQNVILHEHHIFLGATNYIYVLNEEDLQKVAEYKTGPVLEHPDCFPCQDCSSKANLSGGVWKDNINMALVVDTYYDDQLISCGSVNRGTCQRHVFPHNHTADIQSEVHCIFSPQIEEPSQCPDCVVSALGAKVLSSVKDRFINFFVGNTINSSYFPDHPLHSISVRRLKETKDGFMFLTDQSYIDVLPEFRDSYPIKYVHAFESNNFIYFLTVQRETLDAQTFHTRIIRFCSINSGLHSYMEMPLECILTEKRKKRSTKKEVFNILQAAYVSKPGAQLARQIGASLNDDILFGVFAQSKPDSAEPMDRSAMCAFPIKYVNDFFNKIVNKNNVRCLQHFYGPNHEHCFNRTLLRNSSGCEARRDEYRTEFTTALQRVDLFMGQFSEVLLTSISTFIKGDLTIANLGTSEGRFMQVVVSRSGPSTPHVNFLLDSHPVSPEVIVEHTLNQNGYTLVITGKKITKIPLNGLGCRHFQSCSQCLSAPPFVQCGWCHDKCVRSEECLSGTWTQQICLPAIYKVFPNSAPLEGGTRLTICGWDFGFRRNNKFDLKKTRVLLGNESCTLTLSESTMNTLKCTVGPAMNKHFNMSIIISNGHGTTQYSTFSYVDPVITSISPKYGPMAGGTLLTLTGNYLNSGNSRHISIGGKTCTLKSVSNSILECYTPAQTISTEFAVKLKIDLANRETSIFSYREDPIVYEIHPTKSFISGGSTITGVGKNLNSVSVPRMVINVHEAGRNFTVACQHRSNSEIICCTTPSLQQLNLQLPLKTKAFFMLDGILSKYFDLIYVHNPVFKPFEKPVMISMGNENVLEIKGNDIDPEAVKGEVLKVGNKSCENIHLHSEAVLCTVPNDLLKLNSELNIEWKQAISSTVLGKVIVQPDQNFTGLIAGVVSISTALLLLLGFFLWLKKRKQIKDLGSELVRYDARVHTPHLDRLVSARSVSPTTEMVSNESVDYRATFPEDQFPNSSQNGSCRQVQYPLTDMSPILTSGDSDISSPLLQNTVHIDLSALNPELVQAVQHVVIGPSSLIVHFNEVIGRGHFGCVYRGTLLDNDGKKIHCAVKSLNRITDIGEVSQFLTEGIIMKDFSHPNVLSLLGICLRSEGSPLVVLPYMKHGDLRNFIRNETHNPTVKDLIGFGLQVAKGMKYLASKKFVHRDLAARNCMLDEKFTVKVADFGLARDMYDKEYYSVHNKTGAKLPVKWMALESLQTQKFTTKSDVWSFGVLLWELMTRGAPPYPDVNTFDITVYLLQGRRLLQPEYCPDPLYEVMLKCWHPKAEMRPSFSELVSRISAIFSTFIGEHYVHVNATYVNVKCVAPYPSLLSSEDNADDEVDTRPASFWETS

>  <compound>
O=C(Nc1ccc(Oc2ccnc(Cl)c2Cl)c(F)c1)c1nc(-c2ccc(F)c(Cl)c2)cs1 [Compound 51am]

>  <unit.of.measure>
nM

>  <IC50>
93.6

$$$$

----------
Assay: Pharmacokinetic study in BALB/c mice
Assay type: in vivo
Conditions: male, mouse, plasma, iv, i.v. (1.5 mg/kg)
Protocol: Identification of drugs with an acceptable balance of potency, physical properties, and pharmacokinetics (PK) has always been a challenge that often hinders evaluation of the compounds in xenograft models and therapeutic use in clinical practice. Therefore, the PK profile of compound 51am was evaluated in BALB/c mice after intravenous (i.v.) injection and oral administration (p.o.) because of its excellent in vitro activity. […]
parameter: half-life

>  <molecule>
O=C(Nc1ccc(Oc2ccnc(Cl)c2Cl)c(F)c1)c1nc(-c2ccc(F)c(Cl)c2)cs1 [Compound 51am]

>  <experimental.value>
3.2 h

$$$$

----------
>  <molecule>
COc1cc2ncnc(Oc3ccc(NC(=O)c4nc(-c5ccccc5)cs4)cc3F)c2cc1OC [Compound 51o]

>  <melting point>
115 to 117 °C

$$$$
>  <molecule>
COc1cc2nccc(Oc3ccc(NC(=O)c4ncc(-c5ccccc5)s4)cc3)c2cc1OC [Compound 51g]

>  <melting point>
260 to 262 °C

$$$$
>  <molecule>
O=C(Nc1ccc(Oc2ccnc(Cl)c2)c(F)c1)c1nc(-c2cccs2)cs1 [Compound 51aj]

>  <melting point>
184 to 186 °C

$$$$
>  <molecule>
O=C(Nc1ccc(Oc2ccnc(Cl)c2)c(F)c1)c1nc(-c2ccc(F)c(Cl)c2)cs1 [Compound 51ak]

>  <melting point>
168 to 170 °C

$$$$
>  <molecule>
COc1cc2nccc(Oc3ccc(NC(=O)c4nnc(-c5ccccc5)s4)cc3)c2cc1OC [Compound 51c]

>  <melting point>
141 to 143 °C

$$$$
>  <molecule>
O=C(Nc1ccc(Oc2ccnc(Cl)c2Cl)c(F)c1)c1nc(-c2ccc(F)c(F)c2)cs1 [Compound 51an]

>  <melting point>
156 to 158 °C

$$$$
>  <molecule>
COc1cc2nccc(Oc3ccc(NC(=O)c4nnc(-c5ccc(F)cc5)s4)cc3)c2cc1OC [Compound 51d]

>  <melting point>
136 to 138 °C

$$$$
>  <molecule>
COc1cc2nccc(Oc3ccc(NC(=O)c4nc(-c5ccccc5)cs4)c(Cl)c3)c2cc1OC [Compound 51k]

>  <melting point>
201 to 203 °C

$$$$
>  <molecule>
Cc1ccc(-c2csc(C(=O)Nc3ccc(Oc4ccnc(Cl)c4)c(F)c3)n2)cc1 [Compound 51x]

>  <melting point>
157 to 159 °C

$$$$
>  <molecule>
O=C(Nc1ccc(Oc2ccnc(Cl)c2)c(F)c1)c1nc(-c2ccccc2F)cs1 [Compound 51ac]

>  <melting point>
168 to 170 °C

$$$$

----------
target: c-Met (Homo sapiens, UniProt P08581)
Sequence (P08581 25-1390): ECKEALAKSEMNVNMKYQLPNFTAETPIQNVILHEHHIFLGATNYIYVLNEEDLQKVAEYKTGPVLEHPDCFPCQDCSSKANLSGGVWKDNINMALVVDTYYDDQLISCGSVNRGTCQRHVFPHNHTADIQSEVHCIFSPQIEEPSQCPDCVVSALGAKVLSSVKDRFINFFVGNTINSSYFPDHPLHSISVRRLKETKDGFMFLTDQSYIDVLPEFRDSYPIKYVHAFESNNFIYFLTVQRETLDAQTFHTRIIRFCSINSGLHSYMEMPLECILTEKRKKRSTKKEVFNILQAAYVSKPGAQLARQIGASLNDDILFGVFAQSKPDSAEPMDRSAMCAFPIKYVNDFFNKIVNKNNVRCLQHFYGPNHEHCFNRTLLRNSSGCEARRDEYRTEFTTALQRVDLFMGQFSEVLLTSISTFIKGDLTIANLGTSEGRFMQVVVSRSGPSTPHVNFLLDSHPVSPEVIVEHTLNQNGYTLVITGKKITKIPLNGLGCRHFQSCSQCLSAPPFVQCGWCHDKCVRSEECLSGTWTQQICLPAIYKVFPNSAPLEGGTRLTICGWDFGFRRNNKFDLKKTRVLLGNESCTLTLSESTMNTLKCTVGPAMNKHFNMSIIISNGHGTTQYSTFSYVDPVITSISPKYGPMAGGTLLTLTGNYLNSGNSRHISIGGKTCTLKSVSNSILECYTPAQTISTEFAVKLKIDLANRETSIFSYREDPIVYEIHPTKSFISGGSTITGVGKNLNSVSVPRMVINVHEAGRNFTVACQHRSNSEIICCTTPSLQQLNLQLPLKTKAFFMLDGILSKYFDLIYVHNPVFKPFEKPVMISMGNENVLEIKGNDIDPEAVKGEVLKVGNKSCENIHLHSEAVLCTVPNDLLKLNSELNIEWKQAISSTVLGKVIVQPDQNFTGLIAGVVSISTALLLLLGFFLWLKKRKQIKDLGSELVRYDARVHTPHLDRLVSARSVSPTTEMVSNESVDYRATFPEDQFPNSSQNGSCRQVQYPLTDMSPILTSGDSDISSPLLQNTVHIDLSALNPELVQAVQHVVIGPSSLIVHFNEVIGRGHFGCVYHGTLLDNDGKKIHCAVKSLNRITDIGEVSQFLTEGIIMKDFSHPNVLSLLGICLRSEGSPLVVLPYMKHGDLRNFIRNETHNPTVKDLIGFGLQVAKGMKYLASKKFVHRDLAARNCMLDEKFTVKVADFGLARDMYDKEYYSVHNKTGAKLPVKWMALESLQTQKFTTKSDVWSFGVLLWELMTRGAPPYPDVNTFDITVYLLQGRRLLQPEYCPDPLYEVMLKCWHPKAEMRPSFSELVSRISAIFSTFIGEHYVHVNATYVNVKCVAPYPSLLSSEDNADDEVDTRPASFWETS
Recorded IC50 split into classes bottom bin = under 0.02 µM, middle bin = from 0.02 µM up to 0.04 µM, top bin = 0.04 µM and over

>  <molecule>
O=C(Nc1ccc(Oc2ccnc(Cl)c2)c(F)c1)c1nc(-c2ccccc2)cs1 [Compound 51w]

>  <assayed.target>
c-Met (Homo sapiens, UniProt P08581)

>  <class.name>
middle bin

$$$$
>  <molecule>
COc1cc2nccc(Oc3ccc(NC(=O)c4nnc(-c5ccccc5)s4)cc3)c2cc1OC [Compound 51c]

>  <assayed.target>
c-Met (Homo sapiens, UniProt P08581)

>  <class.name>
top bin

$$$$
>  <molecule>
O=C(Nc1ccc(Oc2ccnc(Cl)c2Cl)c(F)c1)c1nc(-c2ccc(F)c(Cl)c2)cs1 [Compound 51am]

>  <assayed.target>
c-Met (Homo sapiens, UniProt P08581)

>  <class.name>
bottom bin

$$$$
>  <molecule>
O=C(Nc1ccc(Oc2ccnc(Cl)c2Cl)c(F)c1)c1nc(-c2ccc(F)c(F)c2)cs1 [Compound 51an]

>  <assayed.target>
c-Met (Homo sapiens, UniProt P08581)

>  <class.name>
bottom bin

$$$$
>  <molecule>
COc1cc2nccc(Oc3ccc(NC(=O)c4nc(-c5ccc(F)cc5)ns4)cc3)c2cc1OC [Compound 51b]

>  <assayed.target>
c-Met (Homo sapiens, UniProt P08581)

>  <class.name>
top bin

$$$$
>  <molecule>
O=C(Nc1ccc(Oc2ccnc(Cl)c2)c(F)c1)c1nc(-c2ccc(F)c(F)c2)cs1 [Compound 51al]

>  <assayed.target>
c-Met (Homo sapiens, UniProt P08581)

>  <class.name>
bottom bin

$$$$
>  <molecule>
COc1cc2nccc(Oc3ccc(NC(=O)c4nc(-c5ccccc5)cs4)c(Cl)c3)c2cc1OC [Compound 51k]

>  <assayed.target>
c-Met (Homo sapiens, UniProt P08581)

>  <class.name>
middle bin

$$$$
>  <molecule>
O=C(Nc1ccc(Oc2ccnc(Cl)c2)c(F)c1)c1nc(-c2cccc(Cl)c2)cs1 [Compound 51ae]

>  <assayed.target>
c-Met (Homo sapiens, UniProt P08581)

>  <class.name>
middle bin

$$$$
>  <molecule>
COc1cc2ncnc(Oc3ccc(NC(=O)c4nc(-c5ccc(F)cc5)cs4)cc3F)c2cc1OC [Compound 51p]

>  <assayed.target>
c-Met (Homo sapiens, UniProt P08581)

>  <class.name>
middle bin

$$$$
>  <molecule>
O=C(Nc1ccc(Oc2ccnc3ccsc23)c(F)c1)c1nc(-c2ccc(F)cc2)cs1 [Compound 51r]

>  <assayed.target>
c-Met (Homo sapiens, UniProt P08581)

>  <class.name>
middle bin

$$$$
>  <molecule>
COc1cc2ncnc(Oc3ccc(NC(=O)c4nc(-c5ccccc5)cs4)cc3F)c2cc1OC [Compound 51o]

>  <assayed.target>
c-Met (Homo sapiens, UniProt P08581)

>  <class.name>
middle bin

$$$$
>  <molecule>
O=C(Nc1ccc(Oc2ccnc(Cl)c2)c(F)c1)c1nc(-c2ccc3ccccc3c2)cs1 [Compound 51ai]

>  <assayed.target>
c-Met (Homo sapiens, UniProt P08581)

>  <class.name>
top bin

$$$$
>  <molecule>
COc1cc2nccc(Oc3ccc(NC(=O)c4ncc(-c5ccc(F)cc5)s4)cc3)c2cc1OC [Compound 51h]

>  <assayed.target>
c-Met (Homo sapiens, UniProt P08581)

>  <class.name>
middle bin

$$$$
>  <molecule>
COc1cc2nccc(Oc3ccc(NC(=O)c4nc(-c5ccccc5)cs4)cc3F)c2cc1OC [Compound 51j]

>  <assayed.target>
c-Met (Homo sapiens, UniProt P08581)

>  <class.name>
middle bin

$$$$
>  <molecule>
O=C(Nc1ccc(Oc2ncnc3ccsc23)c(F)c1)c1nc(-c2ccccc2)cs1 [Compound 51s]

>  <assayed.target>
c-Met (Homo sapiens, UniProt P08581)

>  <class.name>
top bin

$$$$
>  <molecule>
O=C(Nc1ccc(Oc2ccnc3ccsc23)c(F)c1)c1nc(-c2ccccc2)cs1 [Compound 51q]

>  <assayed.target>
c-Met (Homo sapiens, UniProt P08581)

>  <class.name>
middle bin

$$$$
>  <molecule>
COc1cc2nccc(Oc3ccc(NC(=O)c4nc(-c5ccccc5)cs4)cc3)c2cc1OC [Compound 51e]

>  <assayed.target>
c-Met (Homo sapiens, UniProt P08581)

>  <class.name>
middle bin

$$$$
>  <molecule>
O=C(Nc1ccc(Oc2ccnc(Cl)c2)c(F)c1)c1nc(-c2ccccc2F)cs1 [Compound 51ac]

>  <assayed.target>
c-Met (Homo sapiens, UniProt P08581)

>  <class.name>
bottom bin

$$$$

Sourced from paper PMC10467532
